tested on: BT-549; assay: NCI tumour cell line growth inhibition, 48 h
Structures can show the parent of a compound that is named as a salt. The source made the active and inactive calls. Cut-off read from the data, not from the text of the source: active = GI50 up to about 1.1 µM and inactive = higher.
Form entry, call: pick from active, inactive

| compound | target.or.test.system | label.value |
| --- | --- | --- |
| O=C(O)C1(C(=O)O)CC1(C(=O)O)C(=O)O | BT-549 | inactive |
| COc1cccc2cc(C(C)=O)c(=O)oc12 | BT-549 | inactive |

q: # fetch the recorded call for CN1C[C@H](C(=O)N[C@]2(C)O[C@@]3(O)[C@@H]4CCCN4C(=O)[C@H](Cc4ccccc4)N3C2=O)C=C2c3cccc4[nH]cc(c34)C[C@H]21 [ERGOTAMINE TARTRATE] here
a: inactive

q: How about CCN(CC)c1c(-c2c(OC(C)C)c(=O)c2=O)c(=O)n2ccsc2c1OC(C)=O ?
a: inactive
